# system: Cytochrome P450 2D6 (Homo sapiens)
# experiment_notes: Cytochrome P450 Family 2 Subfamily D Member 6 (CYP2D6) small molecule antagonists: luciferase reporter qHTS assay (AID 1671196); note: nearly all actives have a fitted effect of over 50% in size; note: potency is the fitted concentration of half-maximal effect
# run_parameters: P450-Glo CYP2D6 enzyme assay, luciferin luminescence, 1 h; series mostly up to 115 µM
Results filed as inconclusive are left out. Activity calls are given as the source filed them. Calls come from the whole dose curve; as a rule, active = well fitted inhibition curve with a large enough effect in the repeat runs; inconclusive = weak or mixed curves; inactive = no such curve, though single readings can be large or run the other way.
property: Potency

Solved entries (count: 5):
# compound, Potency
rows = [
    ("CC(C)C[C@H]1C(=O)N2CCC[C@H]2[C@]2(O)O[C@](NC(=O)[C@@H]3C=C4c5cccc6[nH]c(Br)c(c56)C[C@H]4N(C)C3)(C(C)C)C(=O)N12", "inactive"),
    ("Cc1ncc(CO)c(C=O)c1O", "inactive"),
    ("CCOc1ccc(N=Nc2ccc(/C=C/c3ccc(N=Nc4ccc(OCC)cc4)cc3S(=O)(=O)O)c(S(=O)(=O)O)c2)cc1", "inactive"),
    ("O=[N+]([O-])c1cccc(S(=O)(=O)O)c1", "7.21 µM (active)"),
    ("COc1ccc(C(=O)N2CCN(CC(=O)N3CCOCC3)CC2)cc1", "inactive"),
]

Batch of 3 compounds: report Potency for each.
1. CCCCCCc1ccc(-c2ccc(C#N)cc2)cc1
2. C=CCOC(=O)CCC1CCCCC1
3. CN(C)C(=O)NC1(c2ccccc2)CCN(CC[C@@]2(c3ccc(F)c(F)c3)CN(C(=O)c3ccccc3)CCO2)CC1

[reply]
["39.2 µM (active)", "inactive", "26.2 µM (active)"]

Batch of 2 compounds: report Potency for each.
1. COc1cc2nc(N3CCN(C(=O)C4COc5ccccc5O4)CC3)nc(N)c2cc1OC (configuration not stated)
2. C[C@H]1C[C@H]2[C@@H]3CCC4=CC(=O)C=C[C@]4(C)[C@@]3(Cl)[C@@H](O)C[C@]2(C)[C@@]1(O)C(=O)CO

[reply]
1: inactive; 2: 30.9 µM (active)

Batch of 4 compounds: report Potency for each.
1. O=C(NCC1CN(c2ccc(N3CCOCC3=O)cc2)C(=O)O1)c1ccc(Cl)s1 (configuration not stated)
2. c1ccc(CNCCNCc2ccccc2)cc1
3. CN1CCN(C(c2ccccc2)c2ccccc2)CC1
4. CC(C)(C)OCC1CO1 (configuration not stated)

[reply]
inactive
0.776 µM (active)
4.9 µM (active)
inactive

Batch of 3 compounds: report Potency for each.
1. CCN(CC)CCOC(=O)C(c1ccccc1)C1CCCCC1 (configuration not stated)
2. CN(C)c1ccc(C(c2ccccc2)c2ccc(N(C)C)cc2)cc1
3. c1ccc(C(O[C@H]2CCCN(CCc3ccc4c(c3)OCO4)C2)c2ccccc2)cc1

[reply]
1: 1.1 µM (active); 2: 31.7 µM (active); 3: 2.45 µM (active)

----------
# system: Cytochrome P450 3A4 (Homo sapiens)
# experiment_notes: Cytochrome P450 Family 3 Subfamily A Member 4 (CYP3A4) small molecule antagonists: luciferase reporter qHTS assay (AID 1671201); note: nearly all actives have a fitted effect of over 50% in size
# run_parameters: P450-Glo CYP3A4 enzyme, luciferin luminescence, 1 h; series mostly up to 115 µM
Results filed as inconclusive are left out. Active and inactive are the calls of the source. Calls follow the shape of the dose curve; as a rule, active = well fitted inhibition curve with a large enough effect in the repeat runs; inconclusive = weak or mixed curves; inactive = no such curve, though single readings can be large or run the other way.
// one of active, inactive, no free text

# compound, system, class_assignment
records = [
    ("CCC(C)c1cc(C(C)(C)C)c(O)c(C(C)(C)C)c1 (stereo not drawn)", "Cytochrome P450 3A4 (Homo sapiens)", "active"),
    ("COS(=O)(=O)C(F)(F)F", "Cytochrome P450 3A4 (Homo sapiens)", "inactive"),
    ("O=[N+]([O-])c1cccc(S(=O)(=O)O)c1", "Cytochrome P450 3A4 (Homo sapiens)", "active"),
    ("CCC(Cl)CCC(Cl)C(Cl)CC(Cl)C(Cl)C(Cl)CCl (stereo not drawn)", "Cytochrome P450 3A4 (Homo sapiens)", "inactive"),
    ("O=C(O)c1ccccc1Cl", "Cytochrome P450 3A4 (Homo sapiens)", "inactive"),
    ("O=C(Nc1ccccc1)c1ccccc1O", "Cytochrome P450 3A4 (Homo sapiens)", "inactive"),
    ("C=C1[C@H]2CC[C@@H]3[C@H]2C(C)(C)CCC[C@]13C", "Cytochrome P450 3A4 (Homo sapiens)", "inactive"),
    ("CC(=O)c1cccc([N+](=O)[O-])c1", "Cytochrome P450 3A4 (Homo sapiens)", "inactive"),
]

[ask] Please share the test call associated with COc1ccc(C(=O)N2CCN(CC(=O)N3CCOCC3)CC2)cc1 .
[reply] inactive

[ask] Please share the test call associated with COc1ccc(C(=O)Nc2nc3ccccc3c(NCc3ccccc3)c2C#N)cc1 .
[reply] active

[ask] Please share the test call associated with CC1(c2ccccc2)OC(C(=O)O)=CC1=O (stereo not drawn) .
[reply] inactive

[ask] Please share the test call associated with O=[N+]([O-])c1ccc2[nH]ncc2c1 .
[reply] inactive

[ask] Please share the test call associated with CCO[Si](CCCCl)(OCC)OCC .
[reply] active

[ask] Please share the test call associated with NS(=O)(=O)c1ccc(N2CCCCS2(=O)=O)cc1 .
[reply] inactive

[ask] Please share the test call associated with CCOCC(O)COc1ccc(NC(=O)CC[S+](C)C)cc1 (stereo not drawn) .
[reply] inactive

[ask] Please share the test call associated with CCOC(=O)C(=O)CCc1ccccc1 .
[reply] inactive

[ask] Please share the test call associated with COCC(C)OC(C)=O (stereo not drawn) .
[reply] inactive

[ask] Please share the test call associated with CC(C)=CCC/C(C)=C/CC/C(C)=C/CO .
[reply] active

----------
# system: Aryl hydrocarbon receptor (Homo sapiens) (UniProt P35869)
# Sequence (P35869 whole entry, looked up): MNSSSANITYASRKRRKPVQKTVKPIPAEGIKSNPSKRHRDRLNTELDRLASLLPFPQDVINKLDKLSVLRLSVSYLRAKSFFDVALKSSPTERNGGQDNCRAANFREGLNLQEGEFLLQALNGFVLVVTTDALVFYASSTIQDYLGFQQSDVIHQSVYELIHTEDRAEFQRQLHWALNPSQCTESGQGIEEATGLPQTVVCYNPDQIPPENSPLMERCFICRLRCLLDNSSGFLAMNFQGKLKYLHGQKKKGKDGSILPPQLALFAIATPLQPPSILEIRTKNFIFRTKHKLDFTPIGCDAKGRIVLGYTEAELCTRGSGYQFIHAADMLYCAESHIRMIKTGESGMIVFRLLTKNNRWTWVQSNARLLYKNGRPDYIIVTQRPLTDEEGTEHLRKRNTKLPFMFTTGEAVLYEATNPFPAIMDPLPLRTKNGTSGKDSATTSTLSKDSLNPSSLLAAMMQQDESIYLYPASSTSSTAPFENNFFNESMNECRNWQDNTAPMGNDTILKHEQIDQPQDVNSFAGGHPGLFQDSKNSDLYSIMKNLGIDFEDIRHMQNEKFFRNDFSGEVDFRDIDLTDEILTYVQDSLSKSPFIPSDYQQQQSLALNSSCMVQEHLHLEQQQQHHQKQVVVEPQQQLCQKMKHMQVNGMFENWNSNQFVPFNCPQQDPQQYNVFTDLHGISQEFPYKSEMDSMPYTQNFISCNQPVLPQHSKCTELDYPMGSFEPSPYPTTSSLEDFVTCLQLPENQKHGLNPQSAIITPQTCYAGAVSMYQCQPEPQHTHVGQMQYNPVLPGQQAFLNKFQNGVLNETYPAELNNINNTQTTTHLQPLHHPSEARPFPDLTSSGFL
# experiment_notes: qHTS assay to identify small molecule that activate the aryl hydrocarbon receptor (AhR) signaling pathway (AID 743085); note: nearly all actives have a fitted effect of over 15% in size;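 for activation: HG2L7.5c1 human HepG2 liver cells with stably integrated DRE-driven firefly reporter; % is set by controls: 0 for no effect and ±100 for the full control effect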
# run_parameters: HepG2 AhR-luc (HG2L7.5c1), luciferase, 24 h; series mostly up to 70.3 µM
Records with an inconclusive call do not appear. The source made the active and inactive calls. Calls follow the shape of the dose curve; as a rule, active = well fitted activation curve with a large enough effect in the repeat runs; inconclusive = weak or mixed curves; inactive = no such curve, though single readings can be large or run the other way.
// one of active, inactive, no free text

Example cases with answers are listed next.
# molecule, class_assignment
measured = [
    ("COC(=O)C1=C(C)NC(COC(N)=O)=C(C(=O)OC(C)C)C1c1cccc(Cl)c1Cl (stereo not given)", "inactive"),
    ("CCCCCCCCCCCC(=O)OC[C@@H](O)[C@H]1OC[C@H](OCCO)[C@H]1OCCO", "inactive"),
    ("Cc1oc(-c2ccccc2)nc1CCOc1cccc2c1ccn2CCC(=O)O", "inactive"),
    ("CCCCCCCCCc1ccc(OCCOCCO)cc1", "inactive"),
    ("NC(N)=NCCC[C@H](N)C(=O)O", "inactive"),
    ("COC(C)(C)CCO", "inactive"),
    ("C=CCOC(=O)CCC1CCCCC1", "inactive"),
    ("O=S(c1cc(Cl)cc(Cl)c1O)c1cc(Cl)cc(Cl)c1O", "inactive"),
]

[ask] Please share the test call associated with c1ccc(C(O[C@H]2CCCN(CCc3ccc4c(c3)OCO4)C2)c2ccccc2)cc1 .
[reply] active

[ask] Please share the test call associated with CCCCC(CC)COC(=O)COc1ccc(Cl)cc1Cl (stereo not given) .
[reply] inactive

----------
# experiment_notes: qHTS assay to identify small molecule antagonists of the estrogen related receptor (ERR) signaling pathway from Tox21 library - cell viability counter screen (AID 1224834); note: nearly all actives have a fitted effect of over 30% in size
# run_parameters: ERR reporter cells viability, CellTiter-Fluor, 17.5 h; series mostly up to 92.4 µM
# Method: National Center for Advancing Translational Sciences [NCATS] NIH Chemical Genomics Center [NCGC] U.S. Environmental Protection Agency [EPA] National Institutes of Environmental Health Sciences [NIEHS] National Toxicology Program [NTP] […] The ERR cells were dispensed at 2,000 cells/5 ul/well in 1536-well white plates using a Multidrop dispenser. […] After 30-minute incubation at 37 C/5% CO2, the fluorescence intensity in the plates was measured using a ViewLux plate reader.
Results filed as inconclusive are left out. Active and inactive are the calls of the source. Calls come from the whole dose curve; as a rule, active = well fitted cell-killing curve with a large enough effect in the repeat runs; inconclusive = weak or mixed curves; inactive = flat fitted curve, though single readings scatter.
// one of active, inactive, no free text

# molecule, class_assignment
measured = [
    ("O=C(NCCO[N+](=O)[O-])c1cccnc1", "inactive"),
    ("CC(C)CC(=O)C1C(=O)c2ccccc2C1=O", "active"),
    ("CCCCC(CC)COC(=O)CCCCCCCCC(=O)OCC(CC)CCCC (stereo unspecified)", "inactive"),
]

[ask] Please share the test call associated with CCCC(=O)Nc1ccc(O)c(C(C)=O)c1 .
[reply] inactive

----------
# experiment_notes: Caspase-3/7 induction in HepG2 cells by small molecules, qHTS cell viability counter screen (AID 1346981); note: % is set by controls: 0 for no effect and ±100 for the full control effect; nearly all actives have a fitted effect of over 30% in size
# run_parameters: CellTiter-Fluor fluorescence, 17 h; series mostly up to 92.4 µM
Inconclusive results are not listed. Active and inactive are the calls of the source. The call rests on the fitted dose curve; in most records, active means well fitted cell-killing curve with a large enough effect in the repeat runs; inconclusive means weak or mixed curves, or effect the other way; inactive means flat fitted curve, though single readings scatter.
property: activity change, negative = cytotoxicity

Solved entries (count: 4):
# molecule, meas_value
records = [
    ("C/C=C/C(=O)CC", "-1.71% [at 19 µM] (inactive)"),
    ("C/C(=C(\\CCOP(=O)(O)O)SC(=O)c1ccccc1)N(C=O)Cc1cnc(C)nc1N", "6.79% [at 8.39 µM] (inactive)"),
    ("CN(C)c1ccc(/C=C/c2ccc([N+](=O)[O-])cc2)cc1", "14.3% [at 8.39 µM] (inactive)"),
    ("CC(CSC(=O)c1ccccc1)C(=O)N1C[C@@H](Sc2ccccc2)C[C@H]1C(=O)O (stereo partly specified)", "-2.03% [at 19 µM] (inactive)"),
]

Batch of 2 molecules: report activity change, negative = cytotoxicity for each.
1. NC(N)=NCCC[C@H](N)C(=O)O
2. Brc1c2ccccc2c(Br)c2ccccc12

[reply]
["-0.647% [at 8.39 µM] (inactive)", "5.61% [at 8.39 µM] (inactive)"]
